Biological target: aminopeptidase B (Rattus norvegicus)
Construct: an aminopeptidase B solution purified by the same enzyme purification process as in the process by Hopsu et al; from tissue
Sequence (O09175 1-650): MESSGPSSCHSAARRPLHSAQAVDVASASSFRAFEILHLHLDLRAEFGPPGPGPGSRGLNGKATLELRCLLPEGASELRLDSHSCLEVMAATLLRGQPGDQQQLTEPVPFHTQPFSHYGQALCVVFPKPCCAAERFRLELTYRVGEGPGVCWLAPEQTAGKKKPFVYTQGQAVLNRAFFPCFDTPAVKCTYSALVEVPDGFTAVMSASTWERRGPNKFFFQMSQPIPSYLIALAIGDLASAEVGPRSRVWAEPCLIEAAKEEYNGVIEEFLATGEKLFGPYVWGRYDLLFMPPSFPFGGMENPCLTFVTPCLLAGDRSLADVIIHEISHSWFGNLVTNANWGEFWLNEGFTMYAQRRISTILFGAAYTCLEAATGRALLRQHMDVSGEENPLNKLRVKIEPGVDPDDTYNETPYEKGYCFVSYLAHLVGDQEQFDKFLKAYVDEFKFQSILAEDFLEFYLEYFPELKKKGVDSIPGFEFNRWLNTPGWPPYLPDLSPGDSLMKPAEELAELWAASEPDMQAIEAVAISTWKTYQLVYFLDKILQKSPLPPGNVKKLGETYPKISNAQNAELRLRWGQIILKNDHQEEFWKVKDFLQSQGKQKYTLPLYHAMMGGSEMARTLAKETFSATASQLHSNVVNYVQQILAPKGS
Experiment: Inhibitory Activity to Aminopeptidase B
Format: biochemical
Conditions: pH 7.0, 37° C., 30 minutes, substrate arginine-β-naphthylamide; read-out: IC50 (50% inhibitory ratio) (converted)
Procedure: Measurement for the inhibitory activity to aminopeptisase B was conducted by the method reported by Hopsu et al. while somewhat modifying the process [V. K. Hopsu, K. K. Makinen, G. G. Glenner; Archives of Biochemistry and Biophysics, 114, 557 (1966)]. A mixed solution (pH 7.0) prepared by adding 1.0 ml of a 0.1 M tris-hydrochloric acid buffer solution and 0.7 ml of a solution containing a test specimen to 0.3 ml of 0.1 mM arginine-β-naphthylamide was heated at 37° C. for 4 minutes. […]
Measured Metric: IC50 (nM)

Below, each entry is followed by its recorded IC50 result.
Compound	IC50 (nM)
COc1ccccc1CC(N)C(O)C(=O)N[C@@H](CC(C)C)C(=O)O (stereo partly shown) [No. 2]	8570
CC(C)C[C@H](NC(=O)C(O)C(N)Cc1ccccc1O)C(=O)O (stereo partly shown) [No. 15]	1630
CC(C)C[C@H](NC(=O)C(O)C(N)Cc1ccc(C(C)C)cc1)C(=O)O (stereo partly shown) [compound 7]	342
CC(C)C[C@H](NC(=O)C(O)C(N)Cc1ccc(O)c(O)c1)C(=O)O (stereo partly shown) [No. 9]	5290

A = COc1ccc(C[C@@H](N)[C@H](O)C(=O)N[C@@H](CC(C)C)C(=O)O)cc1 [No. 1]
B = COc1ccc(C[C@@H](N)[C@H](O)C(=O)N[C@H](C(=O)O)C(C)C)cc1 [No. 14]
Between these two entries, A and B , state which has the higher IC50. Answer with the label corresponding to your selection.
B
(B: 216 nM, A: 17.7 nM)

P = CC(C)C[C@H](NC(=O)C(O)C(N)Cc1ccc(OC(C)C)cc1)C(=O)O (stereo partly shown) [No. 10]
Q = CC(C)C[C@H](NC(=O)C(O)C(N)Cc1ccc(F)cc1)C(=O)O (stereo partly shown) [No. 12]
R = CC(C)C[C@H](NC(=O)C(O)C(N)Cc1ccc2ccccc2c1)C(=O)O (stereo partly shown) [No. 5]
S = CC(C)COc1ccc(CC(N)C(O)C(=O)N[C@@H](CC(C)C)C(=O)O)cc1 (stereo partly shown) [No. 11]
List these items ordered by IC50, big to small. Dear reader, please state the labels in the requested order.
P, S, R, Q

A = CC(C)Cc1ccc(CC(N)C(O)C(=O)N[C@@H](CC(C)C)C(=O)O)cc1 (stereo partly shown) [No. 8]
B = CC(C)C[C@H](NC(=O)C(O)C(N)Cc1cccc2ccccc12)C(=O)O (stereo partly shown) [No. 4]
C = COc1cccc(CC(N)C(O)C(=O)N[C@@H](CC(C)C)C(=O)O)c1 (stereo partly shown) [No. 3]
D = CC(C)C[C@H](NC(=O)C(O)C(N)Cc1cccc(O)c1)C(=O)O (stereo partly shown) [No. 16]
Arrange the 4 compounds from largest to smallest IC50. Would you mind listing the labels in the order asked for?
A, B, D, C
(A: 7680 nM, B: 4180 nM, D: 277 nM, C: 118 nM)

I = CC(C)C[C@H](NC(=O)C(O)C(N)Cc1ccc(-c2ccccc2)cc1)C(=O)O (stereo partly shown) [No. 6]
II = CC[C@H](C)[C@H](NC(=O)C(O)C(N)Cc1ccc2ccccc2c1)C(=O)O (stereo partly shown) [No. 13]
Which of the two gives a bigger number for IC50: I or II ? Write the label of whichever entry you select.
I
